Assay target: mu opioid receptor (Homo sapiens)
Construct: Cerep
Sequence (P35372 whole entry): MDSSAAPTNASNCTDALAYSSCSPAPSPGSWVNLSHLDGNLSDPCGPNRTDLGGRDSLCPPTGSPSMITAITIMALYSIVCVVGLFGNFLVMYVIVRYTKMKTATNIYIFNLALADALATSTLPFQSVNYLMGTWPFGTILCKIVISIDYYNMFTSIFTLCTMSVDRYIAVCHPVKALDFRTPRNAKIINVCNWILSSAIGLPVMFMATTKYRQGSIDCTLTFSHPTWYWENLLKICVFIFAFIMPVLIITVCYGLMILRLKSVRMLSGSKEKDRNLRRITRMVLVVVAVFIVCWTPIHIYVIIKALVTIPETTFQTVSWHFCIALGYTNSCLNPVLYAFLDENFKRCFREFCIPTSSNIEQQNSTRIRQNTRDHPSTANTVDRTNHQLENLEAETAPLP
Assay overview: mu opioid receptor cellular assay (MOP), agonist mode, cAMP readout (Cerep)
Non-standard residues stand in square brackets, D forms with d. Residues, ends and D or L forms follow the SMILES beside them. *: point of attachment. GlcA(β1-O-octyl) = CCCCCCCCO[C@@H]1O[C@H](C(=O)*)[C@@H](O)[C@H](O)[C@H]1O; βGlcA(1-OMe) = CO[C@@H]1O[C@H](C(=O)*)[C@@H](O)[C@H](O)[C@H]1O; Phe(2,4,6-Me3) = Cc1cc(C)c(C[C@H](N)C(=O)O)c(C)c1; Dmt = Cc1cc(O)cc(C)c1C[C@H](N)C(=O)O; Tic = O=C(O)[C@@H]1Cc2ccccc2CN1; Aib = CC(C)(N)C(=O)O; NHBn = c1ccc(CN*)cc1
Hi there, I'd appreciate the recorded EC50 for every entry that follows.
Answers are plain numbers, in µM.

Study these solved cases before continuing.
Molecule: CO[C@@H]1O[C@H](C(=O)NCCCC[C@@H](NC(=O)[C@H](Cc2ccccc2)NC(=O)[C@@H]2Cc3ccccc3CN2C(=O)[C@@H](N)Cc2c(C)cc(O)cc2C)C(=O)NCc2ccccc2)[C@@H](O)[C@H](O)[C@H]1O [EU-A639, Dmt-Tic-Phe-D-Lys(C1-glucuronyl)-NHCH2Ph] (H-[Dmt][Tic]F[dK](βGlcA(1-OMe))-NHBn; N-terminus assumed)
Measurement units: µM
EC50: 0.28
//
Molecule: CO[C@@H]1O[C@H](C(=O)NCCCC[C@H](NC(=O)[C@H](Cc2c(C)cc(C)cc2C)NC(=O)[C@@H]2CCCN2C(=O)[C@@H](N)Cc2c(C)cc(O)cc2C)C(N)=O)[C@@H](O)[C@H](O)[C@H]1O [EU-A101, Dmt-Pro-Tmp-Lys(C1-glucuronyl)-NH2] (H-[Dmt]P[Phe(2,4,6-Me3)]K(βGlcA(1-OMe))-NH2)
Measurement units: µM
EC50: 0.013
//
Molecule: CO[C@@H]1O[C@H](C(=O)NCCCC[C@@H](NC(=O)[C@@H](N)Cc2c(C)cc(O)cc2C)C(=O)N[C@@H](Cc2c(C)cc(C)cc2C)C(=O)N[C@@H](Cc2ccccc2)C(N)=O)[C@@H](O)[C@H](O)[C@H]1O [EU-A107, Dmt-D-Lys(C1-glucuronyl)-Tmp-Phe-NH2] (H-[Dmt][dK](βGlcA(1-OMe))[Phe(2,4,6-Me3)]F-NH2; N-terminus assumed)
Measurement units: µM
EC50: 0.06
//
Molecule: CO[C@@H]1O[C@H](C(=O)NCCCC[C@H](NC(=O)[C@H](Cc2ccccc2)NC(=O)[C@@H]2Cc3ccccc3CN2C(=O)[C@@H](N)Cc2c(C)cc(O)cc2C)C(=O)NCc2ccccc2)[C@@H](O)[C@H](O)[C@H]1O [EU-A620, Dmt-Tic-Phe-Lys(C1-glucuronyl)-NHCH2Ph] (H-[Dmt][Tic]FK(βGlcA(1-OMe))-NHBn)
Measurement units: µM
EC50: 0.48
//
Molecule: CCCCCCCCO[C@@H]1O[C@H](C(=O)NCCCC[C@H](NC(=O)[C@H](Cc2ccccc2)NC(=O)[C@@H]2Cc3ccccc3CN2C(=O)[C@@H](N)Cc2c(C)cc(O)cc2C)C(N)=O)[C@@H](O)[C@H](O)[C@H]1O [EU-A180, Dmt-Tic-Phe-Lys(C8-glucuronyl)-NH2] (H-[Dmt][Tic]FK(GlcA(β1-O-octyl))-NH2)
Measurement units: µM
EC50: 0.036

Now look at this entry.
Quote EC50 reported for CO[C@@H]1O[C@H](C(=O)NCCCC[C@H](NC(=O)[C@H](Cc2ccccc2)NC(=O)[C@@H]2Cc3ccccc3CN2C(=O)[C@@H](N)Cc2c(C)cc(O)cc2C)C(=O)NC(C)(C)C(N)=O)[C@@H](O)[C@H](O)[C@H]1O [EU-A600, Dmt-Tic-Phe-Lys(C1-glucuronyl)-Aib-NH2] (H-[Dmt][Tic]FK(βGlcA(1-OMe))[Aib]-NH2; N-terminus assumed) please.
0.11
